- target_system: DNA polymerase lambda (Homo sapiens) (UniProt Q9UGP5)
- Sequence (whole entry): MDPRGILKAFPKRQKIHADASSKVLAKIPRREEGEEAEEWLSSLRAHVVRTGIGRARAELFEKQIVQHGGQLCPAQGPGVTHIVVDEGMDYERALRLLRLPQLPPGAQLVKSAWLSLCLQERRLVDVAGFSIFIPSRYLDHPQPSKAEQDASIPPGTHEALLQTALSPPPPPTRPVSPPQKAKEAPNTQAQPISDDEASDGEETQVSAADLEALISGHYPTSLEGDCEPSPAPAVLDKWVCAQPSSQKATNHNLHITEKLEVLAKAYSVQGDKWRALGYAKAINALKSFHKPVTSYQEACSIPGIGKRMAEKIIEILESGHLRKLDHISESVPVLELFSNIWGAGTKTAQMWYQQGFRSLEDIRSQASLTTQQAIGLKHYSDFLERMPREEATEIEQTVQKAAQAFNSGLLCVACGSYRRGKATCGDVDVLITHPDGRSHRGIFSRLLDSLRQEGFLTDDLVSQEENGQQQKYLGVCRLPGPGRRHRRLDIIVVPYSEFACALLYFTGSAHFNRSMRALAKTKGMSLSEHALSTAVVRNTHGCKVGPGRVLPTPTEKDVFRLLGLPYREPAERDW
- protocol_summary: Inhibition of recombinant His-tagged human DNA polymerase lambda using bovine deoxyribonuclease 1-treated DNA and dNTP as the DNA template-primer and nucleotide substrate at 10 uM after 60 mins
Active and inactive are the calls of the source. No cut-off for these calls is given here.
One label from this list, please: 1 (yes) (active), 0 (no) (inactive)

INSERT INTO measurements (molecule, category_label) VALUES
  ('CC(=O)O [ACETIC ACID]', '0 (no)'),
  ('CCCCCC(=O)O [HEXANOATE]', '0 (no)'),
  ('CCCCC/C=C\C/C=C\CCCCCCCC(=O)Oc1cccc2c1C(=O)C=CC2=O', '1 (yes)'),
  ('CCCCCCCCCCCC(=O)O [DODECANOATE]', '0 (no)'),
  ('CCCCCCCCCCCC(=O)Oc1cccc2c1C(=O)C=CC2=O', '1 (yes)'),
  ('CC/C=C\C/C=C\C/C=C\C/C=C\C/C=C\CCCC(=O)Oc1cccc2c1C(=O)C=CC2=O', '1 (yes)'),
  ('CC/C=C\C/C=C\C/C=C\CCCCCCCC(=O)O [LINOLENIC ACID]', '0 (no)'),
  ('CC/C=C\C/C=C\C/C=C\C/C=C\C/C=C\C/C=C\CCC(=O)Oc1cccc2c1C(=O)C=CC2=O', '1 (yes)'),
  ('CC(=O)Oc1cccc2c1C(=O)C=CC2=O', '1 (yes)'),
  ('CC/C=C\C/C=C\C/C=C\C/C=C\C/C=C\CCCC(=O)O [ICOSAPENT]', '0 (no)');

Name the outcome recorded for CC/C=C\C/C=C\C/C=C\C/C=C\C/C=C\C/C=C\CCC(=O)O [DOCONEXENT] in the assay.
0 (no)

Entry source: ChEMBL document CHEMBL1914406
